B1: tRNA (parent)
chain: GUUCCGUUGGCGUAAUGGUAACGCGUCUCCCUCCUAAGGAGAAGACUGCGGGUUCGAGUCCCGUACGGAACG

Variants of: B1
Experiment: yeast fitness relative to wild type (ratio to wild type); higher = fitter; tRNA-Arg(CCU), competitive growth, 37 C, YPD
This sample holds only a part of the variants without activity.
// yeast fitness lookup, one value per entry
MEASURE NAME: yeast fitness

> print(dat)
                              query.sequence  value.observed
 1  GUUCCGUUGGCGUAAUGGUAACGCGUGUCCGUCCUAAGGAGAAGACUGCGGGUUCGAGUCCCGUACGAAACG [C27G C31G G68A]           ≤ 0.5
 2  GUUCCGUUGGCGUAAUGGUCACGCGUCUCACUCCUAAGGAGAAGACUGCGGGUUCGAGUCCCGUCCGGAACG [A20C C30A A65C]           0.583
 3  GUUCCGUUGGCGUGAUGGUAACGCGUCUCCCUCCUAAGGAGUAGACUGCGGGUUCGAGUCCUGUACGGACCG [A14G A42U C62U A70C]           ≤ 0.5
 4  GUUCCGUUGGCGCAAUGGUAAACCGUCUCCCUCUUGAGGUGAAGACUGCGGGUUCGAGUCCCGUACGGAACG [U13C C22A G23C C34U A36G A40U]           ≤ 0.5
 5  GUUCCGUUGGCGUACUGGUAGUGCGUCUCCCUCCUAAGGAGAAGACUGUGGGCUCGAGUCCCGUACGGAACG [A15C A21G C22U C49U U53C]           ≤ 0.5
 6  GUUCCGUUGGCGUCAUGGUAACGGGUCUCCCUCCUAAGAAGAAGACUGCGGGUUCGAGUCCCGUACGGAACG [A14C C24G G39A]           ≤ 0.5
 7  GUUCCGUUGGUGUAAUGGUAACGCGUCUCCCUCCUAAGGGGAACACUGCGGGCUAGAGUCCCGUUCGGAACG [C11U A40G G44C U53C C55A A65U]           ≤ 0.5
 8  GUUCCGUUGGCGUUAUGGUAACGCGUCUUCCUCCUAUGGAGAAGACUGAGGGUUCGAGUCCCGUACAGAACG [A14U C29U A37U C49A G67A]           ≤ 0.5
 9  GUUCCGUUGGCGUAAUGGUAACGAGGCUCCCUCCUAAGGAGAAGACUGCGGGUUCCAGUCCCGUACGGAACG [C24A U26G G56C]           ≤ 0.5
10  GUUCCGUUGGCGUAAUAGUAACGCGUCUCCCCCCUAGGGAGAAGACUGCGGGUUCGAGUCCCGUACGGCACG [G17A U32C A37G A69C]             0.5
11  GUUCCGUUGGCGUAAUGGUAACGAGUCUGCCUCCUAAGGAGACGACUGCGGGUUCGAGUCCCGUACGGACCG [C24A C29G A43C A70C]           ≤ 0.5
12  GGUCCGUUGGCGUAAUGAUAACGCGUAUCUCUCCUAAGGAGAAGACUGCGGGUUCGAGUCCCGUACGGAACG [U2G G18A C27A C30U]           ≤ 0.5
13  GUUCCGUUGGCGUAAUGAUUACGCGUCUCCCUCUUGAGGAGAAGACUGCGGGUUCGAGUCCCGUACGGAACG [G18A A20U C34U A36G]           ≤ 0.5
14  GUUCCGUUGGCGUAAUGGUAACGCGUCUCCCACCUAAGGAGAAGACUGCGGGUUCGAGUCCCGUACGGACCG [U32A A70C]           0.741
15  GUUCCGUUGGCGGAAUGGUAACGCGUCUCCCUCCGAAGGGGAAGACUGCGGGUUCGACUCCCGUUCGGAACG [U13G U35G A40G G58C A65U]           ≤ 0.5
16  GUUACGUUGGCGUAAUGGUAACGCGUGUCCCUCCUAAGGAGAAGAUUGCGGGUUCGAGUCCCGUACGGAACG [C4A C27G C46U]           0.636
17  GUUCCAUUGGCGUUAUGGUAACGCGUCUCCCUCCUAAGGAGAAGACUGCGGGUUCGAGUCCCGUACGGAACG [G6A A14U]           0.663
18  GUUCCGUUGGAGUAAUGGUAACGCGUCUCCCUCCUGAGGAGACGACUACGGGUUCGAGUCCCGUACGGAACG [C11A A36G A43C G48A]           0.558
19  GUUCCGUUCGCGUAAUGGUAACGCGUCACCCUCCUAAGGCGAAGACUGCGGGUUCGAGCCCCGUACGGAACG [G9C U28A A40C U59C]           ≤ 0.5
20  GUUCCGUUGGCGUUAUGGUAACGCGUCUCCCUCCUAAGGGGAAGUCUGCGGGUUCAAGUCCCGUACGGAACG [A14U A40G A45U G56A]           ≤ 0.5
21  GUUCCGUUGGCGUAAUGGUCACGCGUCUCCCUCCUAAGGAGAAGACUGCGGGUUCGAGUUCCGUACGGUACG [A20C C60U A69U]           0.617
22  GUUCCGUUGGCGUAAUGGUAACGAGUCUCCCUCCUAAGGAGAAGACUGCGGGUUCGAGUCCAGUACGGAACG [C24A C62A]           0.598
